Biological target: human PARG (Homo sapiens, UniProt Q86W56)
Construct: human PARG from amino acid 378 to 976; GST (glutathione-S-transferase, pGEX-4T1) (N)
Sequence (Q86W56 378-976): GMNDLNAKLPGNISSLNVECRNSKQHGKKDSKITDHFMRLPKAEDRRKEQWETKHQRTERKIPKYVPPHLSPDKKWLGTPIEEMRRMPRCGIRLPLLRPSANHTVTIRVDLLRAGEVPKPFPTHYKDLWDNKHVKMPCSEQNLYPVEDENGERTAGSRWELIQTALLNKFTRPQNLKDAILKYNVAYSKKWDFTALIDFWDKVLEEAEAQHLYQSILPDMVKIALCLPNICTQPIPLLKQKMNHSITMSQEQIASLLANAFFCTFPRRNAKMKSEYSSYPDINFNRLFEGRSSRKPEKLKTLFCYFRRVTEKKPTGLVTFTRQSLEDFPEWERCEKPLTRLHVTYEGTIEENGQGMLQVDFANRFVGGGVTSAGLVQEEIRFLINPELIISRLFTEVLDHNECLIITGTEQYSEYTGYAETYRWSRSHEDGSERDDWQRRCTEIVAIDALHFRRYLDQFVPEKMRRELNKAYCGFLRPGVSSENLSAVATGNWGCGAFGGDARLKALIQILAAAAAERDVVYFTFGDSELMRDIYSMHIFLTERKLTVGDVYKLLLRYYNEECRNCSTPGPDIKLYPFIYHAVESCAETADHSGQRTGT
Experiment: PARG enzymatic assay
Conditions: recombinant GST-fused human PARG (aa 378-976); 3H-labeled poly-(ADP-ribose) substrate; 23° C., 10 min
Observable: IC50
Please state the number and follow it with the unit.

O=C(CCCl)c1ccc2c(c1)Cc1cc(C(=O)CCCl)ccc1O2 [Example 37, 2,7-Bis-(3-chloro-propionyl)-xanthene]: 17 µM
O=C(NCc1ccc(Cl)c(Cl)c1)c1ccc2c(c1)C(=O)c1cc(C(=O)NCc3ccc(Cl)c(Cl)c3)ccc1-2 [Example 57]: 15 µM
O=C(NCCN1CCCC1)c1cccc2c1S(=O)(=O)c1c(cccc1C(=O)NCCN1CCCC1)O2 [Example 49]: 9.9 µM
O=C(CCN1CCN(c2cccc(C(F)(F)F)c2)CC1)c1ccc2c(c1)Cc1cc(C(=O)CCN3CCN(c4cccc(C(F)(F)F)c4)CC3)ccc1O2 [Example 40]: 10.6 µM
O=C(c1cccc2c1S(=O)(=O)c1c(cccc1C(=O)N1CCN(c3ccncc3)CC1)O2)N1CCN(c2ccncc2)CC1 [Example 46]: 28.4 µM

# context switch: different molecule, same IC50
Input line: Answer briefly: IC50 recorded on human PARG (Homo sapiens, UniProt Q86W56) for O=C(NCCc1ccc(Cl)cc1Cl)c1cccc2c1S(=O)(=O)c1c(cccc1C(=O)NCCc1ccc(Cl)cc1Cl)O2 [Example 48]
Output line: 38.7 µM

* * *

Target: human PARG (Homo sapiens)
Construct: human PARG from amino acid 378 to 976; GST (glutathione-S-transferase, pGEX-4T1) (N)
Experiment: PARG enzymatic assay
Conditions: recombinant GST-fused human PARG (aa 378-976); 3H-labeled poly-(ADP-ribose) substrate; 23° C., 10 min
Below, each of the compounds is paired with its reported pIC50 value.
Would you please state pIC50, meaning minus log10 of the concentration in mol/L, as a bare number?

Answered examples (2):
O=C(OCc1ccc(F)cc1)c1ccc2c(c1)C(Cl)(Cl)c1cc(C(=O)OCc3ccc(F)cc3)ccc1-2 [Example 4]: 4.72
O=C(OCc1ccccn1)c1ccc2c(c1)-c1ccc(C(=O)OCc3ccccn3)c3cccc-2c13 [Example 36]: 3.97

Input line: Using the record for O=C(NCc1ccccc1)c1ccc2c(c1)C(=O)c1cc(C(=O)NCc3ccccc3)ccc1-2 [Example 17] , state its measured pIC50.
Output line: 4.66

Input line: Using the record for O=C(OCCc1ccccc1)c1ccc2c(c1)C(Cl)(Cl)c1cc(C(=O)OCCc3ccccc3)ccc1-2 [Example 5] , state its measured pIC50.
Output line: 4.95

Input line: Using the record for O=C(OCCc1cccc2ccccc12)c1ccc2c(c1)C(Cl)(Cl)c1cc(C(=O)OCCc3cccc4ccccc34)ccc1-2 [Example 8] , state its measured pIC50.
Output line: 4.77

Input line: Using the record for O=C(CCN1CCN(c2ccccc2)CC1)c1ccc2oc3ccc(C(=O)CCN4CCN(c5ccccc5)CC4)cc3c(=O)c2c1 [Example 42] , state its measured pIC50.
Output line: 4.00

Input line: Using the record for O=C(c1cccc2c1S(=O)(=O)c1c(cccc1C(=O)N1CCN(c3ccc(C(F)(F)F)cc3)CC1)O2)N1CCN(c2ccc(C(F)(F)F)cc2)CC1 [Example 44] , state its measured pIC50.
Output line: 4.92

* * *

Observable: melting point

Answered examples (3):
O=C(NCCc1ccccc1)c1ccc(C(=O)c2ccc(C(=O)NCCc3ccccc3)cc2)cc1: 244 to 248 °C
O=C(CCN1CCN(c2cccc(Cl)c2)CC1)c1ccc2c(c1)Cc1cc(C(=O)CCN3CCN(c4cccc(Cl)c4)CC3)ccc1O2: 182 to 185 °C
O=C(CCN1CCN(c2ccc(F)cc2)CC1)c1ccc2c(c1)Cc1cc(C(=O)CCN3CCN(c4ccc(F)cc4)CC3)ccc1O2: 207 to 209 °C

Input line: Using the record for O=C(NCc1ccc(Cl)c(Cl)c1)c1ccc2c(c1)C(=O)c1cc(C(=O)NCc3ccc(Cl)c(Cl)c3)ccc1-2 , state its measured melting point.
Output line: 265 to 267 °C

Input line: Using the record for O=C(CCN1CCN(c2cccc(C(F)(F)F)c2)CC1)c1ccc2c(c1)Cc1cc(C(=O)CCN3CCN(c4cccc(C(F)(F)F)c4)CC3)ccc1O2 , state its measured melting point.
Output line: 155 to 157 °C

Input line: Using the record for O=C(NCc1ccc(O)c(O)c1)c1ccc2c(c1)C(=O)c1cc(C(=O)NCc3ccc(O)c(O)c3)ccc1-2 , state its measured melting point.
Output line: 160 to 163 °C

Input line: Using the record for O=C(CCCl)c1ccc2c(c1)Cc1cc(C(=O)CCCl)ccc1O2 , state its measured melting point.
Output line: 179 to 181 °C

* * *

Below, each of the compounds is paired with its reported log10 of IC50 value.
Target: human PARG (Homo sapiens)
Construct: human PARG from amino acid 378 to 976; GST (glutathione-S-transferase, pGEX-4T1) (N)
Assay: PARG enzymatic assay
Details: recombinant GST-fused human PARG (aa 378-976); 3H-labeled poly-(ADP-ribose) substrate; 23° C., 10 min
Record value = log10 of IC50 given in µM.

Answered examples (6):
O=C(NCCCN1CCOCC1)c1cccc2c1S(=O)(=O)c1c(cccc1C(=O)NCCCN1CCOCC1)O2: 0.98
O=C(NCCc1ccccc1)c1ccc(C(=O)c2ccc(C(=O)NCCc3ccccc3)cc2)cc1: 0.78
COc1ccc(CCCCOC(=O)c2ccc3c(c2)C(Cl)(Cl)c2cc(C(=O)OCCCCc4ccc(OC)cc4)ccc2-3)cc1: 1.26
O=C(NCCCc1ccccc1)c1ccc(C(=O)c2ccc(C(=O)NCCCc3ccccc3)cc2)cc1: 1.60
O=C(NCCc1ccccc1)c1ccc2c(c1)C(Cl)(Cl)c1cc(C(=O)NCCc3ccccc3)ccc1-2: 1.40
O=C(NCCc1cccs1)c1cccc2c1S(=O)(=O)c1c(cccc1C(=O)NCCc1cccs1)O2: 1.06

Input line: Using the record for NS(=O)(=O)c1ccc(CCNC(=O)c2ccc3c(c2)-c2ccc(C(=O)NCCc4ccc(S(N)(=O)=O)cc4)c4cccc-3c24)cc1 , state its measured log10 of IC50.
Output line: 1.18

Input line: Using the record for O=C(OCc1ccc2ccccc2c1)c1ccc2c(c1)C(Cl)(Cl)c1cc(C(=O)OCc3ccc4ccccc4c3)ccc1-2 , state its measured log10 of IC50.
Output line: 1.43

Input line: Using the record for O=C(OCc1cccc2ccccc12)c1ccc2c(c1)C(Cl)(Cl)c1cc(C(=O)OCc3cccc4ccccc34)ccc1-2 , state its measured log10 of IC50.
Output line: 0.90

Input line: Using the record for O=C(CCN1CCN(c2cccc(Cl)c2)CC1)c1ccc2c(c1)Cc1cc(C(=O)CCN3CCN(c4cccc(Cl)c4)CC3)ccc1O2 , state its measured log10 of IC50.
Output line: 0.04

Input line: Using the record for O=C(CCCn1cccc1)c1ccc2c(c1)-c1ccc(C(=O)CCCn3cccc3)c3cccc-2c13 , state its measured log10 of IC50.
Output line: 0.73

Input line: Using the record for O=C(NCc1ccc(O)c(O)c1)c1ccc2c(c1)C(=O)c1cc(C(=O)NCc3ccc(O)c(O)c3)ccc1-2 , state its measured log10 of IC50.
Output line: 1.00

Input line: Using the record for O=C(OCc1ccccc1)c1ccc2c(c1)C(Cl)(Cl)c1cc(C(=O)OCc3ccccc3)ccc1-2 , state its measured log10 of IC50.
Output line: 1.13

Input line: Using the record for O=C(OCCc1ccc2ccccc2c1)c1ccc2c(c1)C(Cl)(Cl)c1cc(C(=O)OCCc3ccc4ccccc4c3)ccc1-2 , state its measured log10 of IC50.
Output line: 1.67

* * *

Target: human PARG (Homo sapiens)
Construct: human PARG from amino acid 378 to 976; GST (glutathione-S-transferase, pGEX-4T1) (N)
Assay: PARG enzymatic assay
Details: recombinant GST-fused human PARG (aa 378-976); 3H-labeled poly-(ADP-ribose) substrate; 23° C., 10 min
rule met if IC50 is below 20 µM. rule not met if not; exact matches included in rule not met.

Known results for compounds:
N#CC1CCC(CNC(=O)c2ccc3c(c2)-c2ccc(C(=O)NCC4CCC(C#N)CC4)c4cccc-3c24)CC1 (stereo not shown) [Example 31]: rule not met
CN(CCCC(=O)c1ccc2c(c1)-c1ccc(C(=O)CCCN(C)c3ccccc3)c3cccc-2c13)c1ccccc1 [Example 53]: rule met
O=C(OCc1ccc(O)c(O)c1)c1ccc2c(c1)C(Cl)(Cl)c1cc(C(=O)OCc3ccc(O)c(O)c3)ccc1-2 [Example 6]: rule met

Input line: Consider O=C(CCCl)c1ccc2oc3ccc(C(=O)CCCl)cc3c(=O)c2c1 [Example 38] . Does its IC50 lie strictly below 20 µM?
Output line: rule met

Input line: Consider COc1cc(CCNC(=O)c2cccc3c2S(=O)(=O)c2c(cccc2C(=O)NCCc2cc(OC)cc(OC)c2)O3)cc(OC)c1 [Example 52] . Does its IC50 lie strictly below 20 µM?
Output line: rule not met

Input line: Consider O=C(CCN1CCN(c2cccc(C(F)(F)F)c2)CC1)c1ccc2oc3ccc(C(=O)CCN4CCN(c5cccc(C(F)(F)F)c5)CC4)cc3c(=O)c2c1 [Example 41] . Does its IC50 lie strictly below 20 µM?
Output line: rule met

Input line: Consider COc1ccccc1CCNC(=O)c1ccc2c(c1)-c1ccc(C(=O)NCCc3ccccc3OC)c3cccc-2c13 [Example 32] . Does its IC50 lie strictly below 20 µM?
Output line: rule not met
